# subject of test: T1, EGFRvIII extracellular domain (EGFR (1-29)-G-(298-645)-LESRGPF-Myc-NMHTG-6His) (human, UniProt P00533 298-641)
# T1 construct: also called recombinant EGFRvIII; not shown: Myc tag
# experiment notes: SPR (Biacore), antibody captured via anti-human Fc, antigen injected
property name: koff (s⁻¹)
Kindly provide the numeric value in s⁻¹ only, without the unit symbol.

# example entries with known answers
>>> quantitative_readout("Antibody O (AbO) (antibody, V domains shown, Full length IgG1; also called Antibody 0) VH: EVQLQESGPGLVKPSQTLSLTCTVSGYSIGKDFAWNWIRQPPGKGLEWMGYISYNGNTRYQPSLKSRITISRDTSKNQFFLKLNSVTAADTATYYCVTASRGFPYWGQGTLVTVSS VL: DIQMTQSPSSMSVSVGDRVTITCHSSQDITYNVGWLQQKPGKSFKGLIYHGSNLDHGVPSRFSGSGSGTDYTLTISSLQPEDFATYYCVQYDDFPWTFGGGTKLEIK")
"5.22e-05"
>>> quantitative_readout("Antibody E (AbE) (antibody, V domains shown, Full length IgG1) VH: EVQLQESGPGLVKPSQTLSLTCTVSGYSISSDFAWNWIRQPPGKGLEWMGYISYSGNTRYQPSLKSRITISRDTSKNQFFLKLNSVTAADTATYYCVTAGRGFPYWGQGTLVTVSS VL: DIQMTQSPSSMSVSVGDRVTITCHSSQDINSNLGWLQQKPGKSFKGLIYHGSNLDHGVPSRFSGSGSGTDYTLTISSLQPEDFATYYCVQYDQFPWTFGGGTKLEIK")
0.00158
>>> quantitative_readout("Antibody A (AbA) (antibody, human IgG1, kappa, V domains shown, IgG1) VH: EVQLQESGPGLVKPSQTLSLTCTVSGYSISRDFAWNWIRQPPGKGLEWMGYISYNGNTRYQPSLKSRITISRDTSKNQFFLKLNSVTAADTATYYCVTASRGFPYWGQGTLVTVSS VL: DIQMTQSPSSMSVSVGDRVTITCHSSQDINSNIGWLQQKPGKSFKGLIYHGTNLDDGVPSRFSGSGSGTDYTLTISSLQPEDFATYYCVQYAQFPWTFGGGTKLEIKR")
0.000173
>>> quantitative_readout("Antibody M (AbM) (antibody, V domains shown, Full length IgG1) VH: EVQLQESGPGLVKPSQTLSLTCTVSGYSIGRDFAWNWIRQPPGKGLEWMGYISYNGNTRYQPSLKSRITISRDTSKNQFFLKLNSVTAADTATYYCVTASRGFPYWGQGTLVTVSS VL: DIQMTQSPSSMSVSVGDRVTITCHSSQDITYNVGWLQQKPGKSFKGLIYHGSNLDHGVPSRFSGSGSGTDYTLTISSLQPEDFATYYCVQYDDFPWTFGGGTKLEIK")
0.000118
>>> quantitative_readout("Antibody F (AbF) (antibody, V domains shown, Full length IgG1) VH: EVQLQESGPGLVKPSQTLSLTCTVSGYSISRDFAWNWIRQPPGKGLEWMGYISYSGNTRYQPSLKSRITISRDTSKNQFFLKLNSVTAADTATYYCVTASRGFPYWGQGTLVTVSS VL: DIQMTQSPSSMSVSVGDRVTITCHSSQDINSNIGWLQQKPGKSFKGLIYHGTNLDDGVPSRFSGSGSGTDYTLTISSLQPEDFATYYCVQYAQFPWTFGGGTKLEIK")
0.000324
>>> quantitative_readout("Antibody N (AbN) (antibody, V domains shown, Full length IgG1) VH: EVQLQESGPGLVKPSQTLSLTCTVSGYSIGRDFAWNWIRQPPGKGLEWMGYISYSGNTRYQPSLKSRITISRDTSKNQFFLKLNSVTAADTATYYCVTASRGFPYWGQGTLVTVSS VL: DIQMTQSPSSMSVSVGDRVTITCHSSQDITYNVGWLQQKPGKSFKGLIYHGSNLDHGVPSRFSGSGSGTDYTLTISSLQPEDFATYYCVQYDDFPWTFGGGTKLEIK")
0.000103
>>> quantitative_readout("Antibody K (AbK) (antibody, V domains shown, Full length IgG1) VH: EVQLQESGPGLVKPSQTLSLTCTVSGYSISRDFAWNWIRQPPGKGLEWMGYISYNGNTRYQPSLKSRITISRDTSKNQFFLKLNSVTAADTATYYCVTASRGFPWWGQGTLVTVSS VL: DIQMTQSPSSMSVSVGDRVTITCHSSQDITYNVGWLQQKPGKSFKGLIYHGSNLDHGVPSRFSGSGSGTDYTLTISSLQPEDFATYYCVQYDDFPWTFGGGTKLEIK")
"7.75e-05"
>>> quantitative_readout("Antibody P (AbP) (antibody, V domains shown, Full length IgG1) VH: EVQLQESGPGLVKPSQTLSLTCTVSGYSISHDFAWNWIRQPPGKGLEWMGYISYSGNTRYQPSLKSRITISRDTSKNQFFLKLNSVTAADTATYYCVTASWGLPWWGQGTLVTVSS VL: DIQMTQSPSSMSVSVGDRVTITCHSSQDINMNVGWLQQKPGKSFKGLIYHGAILDDGVPSRFSGSGSGTDYTLTISSLQPEDFATYYCVQYAEFPWTFGGGTKLEIK")
0.000135

In plain terms, Antibody B (AbB) (antibody, V domains shown, Converted from scFv into a full length IgG1 antibody) VH: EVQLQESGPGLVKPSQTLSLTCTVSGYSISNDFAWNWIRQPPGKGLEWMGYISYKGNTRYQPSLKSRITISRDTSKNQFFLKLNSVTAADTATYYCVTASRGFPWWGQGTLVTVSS VL: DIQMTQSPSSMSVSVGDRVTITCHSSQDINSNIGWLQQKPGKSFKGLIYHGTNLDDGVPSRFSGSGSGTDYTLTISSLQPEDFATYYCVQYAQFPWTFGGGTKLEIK has a documented koff of 0.000173

Per the record, Antibody G (AbG) (antibody, V domains shown, Full length IgG1) VH: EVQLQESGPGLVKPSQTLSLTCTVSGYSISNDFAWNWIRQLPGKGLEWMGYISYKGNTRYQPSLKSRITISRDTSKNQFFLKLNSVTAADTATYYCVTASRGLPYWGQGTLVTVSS VL: DIQMTQSPSSMSVSVGDRVTITCHSSQDITYNIGWLQQKPGKSFKGLIYHGANLDDGVPSRFSGSGSGTDYTLTISSLQPEDFATYYCVQYDEFPWTFGGGTKLEIK has koff of 7.44e-05
